The origin of these recorded values is paper PMC9060900.

- measurement_target: TMV coat protein (TMV-CP; TMV CP) (Tobacco mosaic virus (vulgare), UniProt P69687)
- Sequence (P69687 2-159): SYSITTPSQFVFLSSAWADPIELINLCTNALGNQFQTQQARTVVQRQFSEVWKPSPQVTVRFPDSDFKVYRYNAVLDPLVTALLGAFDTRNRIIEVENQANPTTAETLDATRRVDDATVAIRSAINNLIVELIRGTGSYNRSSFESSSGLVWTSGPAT
- experimental_details: microscale thermophoresis
pKd: −log10 of the molar value.
parameter_measured: pKd

molecule	result_value
Cc1csc(/C=C/C(=O)c2ccccc2OCCSc2nnc(-c3ccccc3)c(-c3ccccc3)n2)n1 [4o]	3.61
